B1: ATGL (PNPLA2, patatin-like phospholipase domain-containing protein 2), human, full length / CGI-58 (ABHD5, 1-acylglycerol-3-phosphate O-acyltransferase ABHD5), human (parent)
chain 1: MFPREKTWNISFAGCGFLGVYYVGVASCLREHAPFLVANATHIYGASAGALTATALVTGVCLGEAGAKFIEVSKEARKRFLGPLHPSFNLVKIIRSFLLKVLPADSHEHASGRLGISLTRVSDGENVIISHFNSKDELIQANVCSGFIPVYCGLIPPSLQGVRYVDGGISDNLPLYELKNTITVSPFSGESDICPQDSSTNIHELRVTNTSIQFNLRNLYRLSKALFPPEPLVLREMCKQGYRDGLRFLQRNGLLNRPNPLLALPPARPHGPEDKDQAVESAQAEDYSQLPGEDHILEHLPARLNEALLEACVEPTDLLTTLSNMLPVRLATAMMVPYTLPLESALSFTIRLLEWLPDVPEDIRWMKEQTGSICQYLVMRAKRKLGRHLPSRLPEQVELRRVQSLPSVPLSCAAYREALPGWMRNNLSLGDALAKWEECQRQLLLGLFCTNVAFPPEALRMRAPADPAPAPADPASPQHQLAGPAPLLSTPAPEARPVIGALGL
chain 2: MAAEEEEVDSADTGERSGWLTGWLPTWCPTSISHLKEAEEKMLKCVPCTYKKEPVRISNGNKIWTLKFSHNISNKTPLVLLHGFGGGLGLWALNFGDLCTNRPVYAFDLLGFGRSSRPRFDSDAEEVENQFVESIEEWRCALGLDKMILLGHNLGGFLAAAYSLKYPSRVNHLILVEPWGFPERPDLADQDRPIPVWIRALGAALTPFNPLAGLRIAGPFGLSLVQRLRPDFKRKYSSMFEDDTVTEYIYHCNVQTPSGETAFKNMTIPYGWAKRPMLQRIGKMHPDIPVSVIFGARSCIDGNSGTSIQSLRPHSYVKTIAILGAGHYVYADQPEEFNQKVKEICDTVD

variants of: B1; experiment: LUMIER: Protein A-ATGL variant and firefly luciferase-partner co-expressed in HEK293T, lysates immunoprecipitated on IgG-coated plates, co-precipitated partner measured as luciferase luminescence; details: with CGI-58 (ABHD5, 1-acylglycerol-3-phosphate O-acyltransferase ABHD5), transient co-transfection, IgG-coated LUMITRAC plates, 2 h at 4 °C, three PBS washes, Bright-Glo luciferase reagent, triplicates per assay, two …, parent: 0.32, not graded, scale: log2 fold change of co-immunoprecipitated luminescence relative to wild-type ATGL within each experiment
So I've got a bunch of variants here, and I need their screen value values.
Answer with the value's number alone.

input: // returns reported screen value for input chain 1 P103K
output: -0.089

input: // query screen value value for entry chain 1 R95K
output: 0.177

input: Item under review: chain 1 E368A . Reported screen value?
output: -0.427

input: Quick one: screen value for chain 1 F35E ?
output: 0.146
